outcome-measure: melting point (°C)

Observe how each entry below is paired with its result.
| compound | outcome-measure | value |
| --- | --- | --- |
| Nc1cccc(F)c1 | melting point | -5 |
| NC(=O)c1ccccc1OC(F)(F)F | melting point | 154 |
| CNC(=S)Nc1cc(OC)c(OC)cc1C(c1ccc(C)o1)c1ccc(C)o1 | melting point | 165 |
| Clc1ccc2c(c1)C(N1CCNCC1)=Nc1ccccc1O2 | melting point | 176 |
| C=COCC(CC)CCCC (stereo not given) | melting point | -100 |

1 = c1ccc(Cc2c3ccccc3c(Cc3ccccc3)c3ccccc23)cc1
2 = C1COCCOCCOCCOCCOCCO1
Query block: Hello, I am sorting some records. Could you say if 1 or 2 has the smaller melting point value? Please respond with the label that marks your chosen entry.
Result block: 2
